target: canine FcRn complex (FcRn-alpha subunit and beta-microglobulin), His-tagged, biotin labeled (canine); experiment: SPR (Biacore), biotin-FcRn captured on SA surface, IgG flowed over, pH 6, 15 C
Define the label as yes (1) when Kd is strictly less than 8 nM and as no (0) in all remaining cases.

binder | group label
canine IgGB (65) mAb with mutation Q311M (antibody, part only; not given: Variable domains, not shown: another chain or arm of the molecule) constant: ASTTAPSVFPLAPSCGSTSGSTVALACLVSGYFPEPVTVSWNSGSLTSGVHTFPSVLQSSGLYSLSSMVTVPSSRWPSETFTCNVAHPASKTKVDKPVPKRENGRVPRPPDCPKCPAPEMLGGPSVFIFPPKPKDTLLIARTPEVTCVVVDLDPEDPEVQISWFVDGKQMQTAKTQPREEQFNGTYRVVSVLPIGHMDWLKGKQFTCKVNNKALPSPIERTISKARGQAHQPSVYVLPPSREELSKNTVSLTCLIKDFFPPDIDVEWQSNGQQEPESKYRTTPPQLDEDGSYFLYSKLSVDKSRWQRGDTFICAVMHEALHNHYTQESLSHSPGK | no (0)
canine IgGB (65) mAb with mutation Y436K (antibody, part only; not given: variable domains of unnamed mAb, not shown: another chain or arm of the molecule) constant: ASTTAPSVFPLAPSCGSTSGSTVALACLVSGYFPEPVTVSWNSGSLTSGVHTFPSVLQSSGLYSLSSMVTVPSSRWPSETFTCNVAHPASKTKVDKPVPKRENGRVPRPPDCPKCPAPEMLGGPSVFIFPPKPKDTLLIARTPEVTCVVVDLDPEDPEVQISWFVDGKQMQTAKTQPREEQFNGTYRVVSVLPIGHQDWLKGKQFTCKVNNKALPSPIERTISKARGQAHQPSVYVLPPSREELSKNTVSLTCLIKDFFPPDIDVEWQSNGQQEPESKYRTTPPQLDEDGSYFLYSKLSVDKSRWQRGDTFICAVMHEALHNHKTQESLSHSPGK | yes (1)

Lab note: next binder to report on.
Does canine IgGB (65) mAb with mutation D312L (antibody, part only; not given: Variable domains, not shown: another chain or arm of the molecule) constant: ASTTAPSVFPLAPSCGSTSGSTVALACLVSGYFPEPVTVSWNSGSLTSGVHTFPSVLQSSGLYSLSSMVTVPSSRWPSETFTCNVAHPASKTKVDKPVPKRENGRVPRPPDCPKCPAPEMLGGPSVFIFPPKPKDTLLIARTPEVTCVVVDLDPEDPEVQISWFVDGKQMQTAKTQPREEQFNGTYRVVSVLPIGHQLWLKGKQFTCKVNNKALPSPIERTISKARGQAHQPSVYVLPPSREELSKNTVSLTCLIKDFFPPDIDVEWQSNGQQEPESKYRTTPPQLDEDGSYFLYSKLSVDKSRWQRGDTFICAVMHEALHNHYTQESLSHSPGK have Kd strictly under 8 nM?
no (0)
